Molecular target: CyclinE1/CDK2 (Homo sapiens)
Construct: purchased Eurofins, discovery 14-475
Assay: Fluorescence Polarization (FP) competitive binding assay, Cyclin E1/Cdk2;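 further: readings taken after two-hour equilibration at room temperature in HEPES buffer with NaCl, DTT, NP-40 and BSA, IC50 fitted from eight-concentration serial dilution series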
Details: 10 nM Cyclin E1/Cdk2, 2 nM FAM probe; average of 2-3 independent experiments; read-out: Cyclin E FP IC50
*1 amine or outer side, *2 acyl side, *3 side chain or, on linkers, in order; H or OH if unused. Where a SMILES comes first, the peptide text is derived from it. Bridges are numbered along the chain shown (N, C = ends). [ ]: non-standard residue; d: D form. The star is where a group is joined. NMehhhLys(Me) = CN([C@@H](CCCCCCCN(C)[*:3])C(=O)[*:2])[*:1]; NMe3Pal(2-OiPr,5-Cl) = CN[C@@H](Cc1cc(Cl)cnc1OC(C)C)C(=O)O; NMe(hhhLys) = CN([C@@H](CCCCCCCN[*:3])C(=O)[*:2])[*:1]; cBuCO(3,3-F2-1-CF3) = O=C(C1(C(F)(F)F)CC(F)(F)C1)*; X133 = Cc1ncc(Cl)cc1C[C@@H](C(=O)[*:2])N(C)[*:1]; Pro(trans-4-F) = O=C(O)[C@@H]1C[C@@H](F)CN1; Gly(cPr) = N[C@H](C(=O)O)C1CC1
Would you mind telling me the reported pIC50 of each entry?
// pIC50: -log10(molar conc.)

Query: Please give the measured pIC50 for this compound: `CC(C)C[C@@H]1NC(=O)[C@@H](N(C)C(=O)[C@@H](NC(=O)[C@@H]2C[C@@H](F)CN2C(=O)C2(C(F)(F)F)CC(F)(F)C2)C2CC2)CC=CCCCCN(C)C(=O)[C@H](Cc2cc(F)ccc2-c2cncnc2)N(C)C1=O`
Result: 5.75

Query: Given the entry Cc1ncc(Cl)cc1C[C@H]1C(=O)NCCCCCCC[C@H](N(C)C(=O)[C@@H](NC(=O)[C@@H]2C[C@@H](F)CN2C(=O)C2(C(F)(F)F)CC(F)(F)C2)C2CC2)C(=O)N[C@@H](CC(C)C)C(=O)N1C [Example 331] ({cBuCO(3,3-F2-1-CF3)}-[Pro(trans-4-F)][Gly(cPr)][NMe(hhhLys)]L[X133]; lactam 3-C) , report its measured pIC50.
Result: 5.94

Query: So what does the record say about pIC50 for CC(C)C[C@@H]1NC(=O)[C@@H](N(C)C(=O)[C@@H](NC(=O)[C@@H]2C[C@@H](F)CN2C(=O)C2(C(F)(F)F)CC(F)(F)C2)C2CC2)CCCCCCCN(C)C(=O)[C@H](Cc2cc(Cl)cnc2OC(C)C)N(C)C1=O [Example 120] ({cBuCO(3,3-F2-1-CF3)}-[Pro(trans-4-F)][Gly(cPr)][NMehhhLys(Me)]L[NMe3Pal(2-OiPr,5-Cl)]; lactam 3-C) ?
Result: 6.68

* * *

Tested on: OVCAR3 cells
Test: MTT proliferation assay, OVCAR3;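 further: compound given as an 8- or 10-point series, one day after plating, with exposure covering roughly 3-4 cell doublings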
Assay type: cell-based
Settings: 5 days compound exposure, 1:3 serial dilution starting at 10 μM
*1 amine or outer side, *2 acyl side, *3 side chain or, on linkers, in order; H or OH if unused. Where a SMILES comes first, the peptide text is derived from it. Bridges are numbered along the chain shown (N, C = ends). [ ]: non-standard residue; d: D form. The star is where a group is joined. X127 = CN([C@@H](Cc1cc(F)ccc1-c1cnn(S(=O)(=O)C2CC2)c1)C(=O)[*:2])[*:1]; X114 = CN([C@@H](Cc1cc(Cl)ccc1-c1ccc(OCCN2CCOCC2)cc1)C(=O)[*:2])[*:1]; X59 = CC(c1ccc(-c2ccc(Cl)cc2C[C@@H](C(=O)[*:2])N(C)[*:1])cc1)N1CCOCC1; X158 = CCOc1ccc(-c2ccc(Cl)cc2C[C@@H](C(=O)[*:2])N(C)[*:1])cn1; X196 = CN([C@@H](Cc1cc(F)ccc1-c1cnn2ccncc12)C(=O)[*:2])[*:1]; X26 = CN([C@@H](Cc1cc(F)ccc1-c1cnn(C2CC2)c1)C(=O)[*:2])[*:1]; X60 = CN([C@@H](Cc1cc(Cl)ccc1-c1cnn2ccncc12)C(=O)[*:2])[*:1]; X89 = CN([C@@H](Cc1cc(Cl)ccc1-c1cnn(CC#N)c1)C(=O)[*:2])[*:1]; NMehhhLys(Me) = CN([C@@H](CCCCCCCN(C)[*:3])C(=O)[*:2])[*:1]; X180 = CN([C@@H](Cc1cc(F)ccc1-c1cnn2c1CCC2)C(=O)[*:2])[*:1]; NMe(hhhLys) = CN([C@@H](CCCCCCCN[*:3])C(=O)[*:2])[*:1]; cBuCO(3,3-F2-1-CF3) = O=C(C1(C(F)(F)F)CC(F)(F)C1)*; Pro(trans-4-F) = O=C(O)[C@@H]1C[C@@H](F)CN1; X27 = O=C([C@]1(C(F)(F)F)CCCCO1)*; Gly(cPr) = N[C@H](C(=O)O)C1CC1
Would you kindly list GI50 for each of these compounds?
Form entry: value (nM) — number only.

Query: Find the recorded GI50 belonging to Cc1nnc(-c2ccc(Cl)cc2C[C@H]2C(=O)NCCCCC=CC[C@H](N(C)C(=O)[C@@H](NC(=O)[C@@H]3C[C@@H](F)CN3C(=O)C3(C(F)(F)F)CC(F)(F)C3)C3CC3)C(=O)N[C@@H](CC(C)C)C(=O)N2C)o1 (single isomer, unassigned) [Example 118-P2] and report it.
Result: 50

Query: GI50; subject: CC(C)C[C@@H]1NC(=O)[C@@H](N(C)C(=O)[C@@H](NC(=O)[C@@H]2C[C@@H](F)CN2C(=O)C2(C(F)(F)F)CC(F)(F)C2)C2CC2)CCCCCCCNC(=O)[C@H](Cc2cc(F)ccc2-c2cnn3c2CCC3)N(C)C1=O [Example 214] ({cBuCO(3,3-F2-1-CF3)}-[Pro(trans-4-F)][Gly(cPr)][NMe(hhhLys)]L[X180]; lactam 3-C)
Result: 10

Query: Param item = CC(C)C[C@@H]1NC(=O)[C@@H](N(C)C(=O)[C@@H](NC(=O)[C@@H]2C[C@@H](F)CN2C(=O)C2(C(F)(F)F)CC(F)(F)C2)C2CC2)CCCCCCCN(C)C(=O)[C@H](Cc2cc(Cl)ccc2-c2ccc(OCCN3CCOCC3)cc2)N(C)C1=O [Example 339] ({cBuCO(3,3-F2-1-CF3)}-[Pro(trans-4-F)][Gly(cPr)][NMehhhLys(Me)]L[X114]; lactam 3-C) ; retrieve measured GI50.
Result: 10

Query: Entry CC(C)C[C@@H]1NC(=O)[C@@H](N(C)C(=O)[C@@H](NC(=O)[C@@H]2C[C@@H](F)CN2C(=O)C2(C(F)(F)F)CC(F)(F)C2)C2CC2)CCCCCCCN(C)C(=O)[C@H](Cc2cc(Cl)ccc2-c2ccc(C(C)N3CCOCC3)cc2)N(C)C1=O (stereo partly drawn) [Example 403] ({cBuCO(3,3-F2-1-CF3)}-[Pro(trans-4-F)][Gly(cPr)][NMehhhLys(Me)]L[X59]; lactam 3-C) has what GI50?
Result: 10

Query: Fill in: GI50 of CC(C)C[C@@H]1NC(=O)[C@@H](N(C)C(=O)[C@@H](NC(=O)[C@@H]2C[C@@H](F)CN2C(=O)C2(C(F)(F)F)CCC2)C2CC2)CC=CCCCCNC(=O)[C@H](Cc2cc(Cl)cnc2OC2CC2)N(C)C1=O (single isomer, unassigned) [Example 107-P1] is ___
Result: 1010

Query: Which value of GI50 has been reported for CC(C)C[C@@H]1NC(=O)[C@@H](N(C)C(=O)[C@@H](NC(=O)[C@@H]2C[C@@H](F)CN2C(=O)[C@]2(C(F)(F)F)CCCCO2)C2CC2)CCCCCCCN(C)C(=O)[C@H](Cc2cc(F)ccc2-c2cnn(C3CC3)c2)N(C)C1=O [Example 146] (X27-[Pro(trans-4-F)][Gly(cPr)][NMehhhLys(Me)]L[X26]; lactam 3-C) in the records?
Result: 20

Query: // GI50 lookup, key: CC(C)C[C@@H]1NC(=O)[C@@H](N(C)C(=O)[C@@H](NC(=O)[C@@H]2C[C@@H](F)CN2C(=O)C2(C(F)(F)F)CC(F)(F)C2)C2CC2)CCCCCCCN(C)C(=O)[C@H](Cc2cc(F)ccc2-c2cnn3ccncc23)N(C)C1=O [Example 310] ({cBuCO(3,3-F2-1-CF3)}-[Pro(trans-4-F)][Gly(cPr)][NMehhhLys(Me)]L[X196]; lactam 3-C)
Result: 10

Query: Consider the compound shown here: CC(C)C[C@@H]1NC(=O)[C@@H](N(C)C(=O)[C@@H](NC(=O)[C@@H]2C[C@@H](F)CN2C(=O)C2(C(F)(F)F)CCC2)C2CC2)CC=CCCCCNC(=O)[C@H](Cc2cc(Cl)ccc2-c2cnn(C3COC3)c2)N(C)C1=O [Example 32] What is its recorded GI50?
Result: 250

Query: Please report the recorded GI50 for CCOc1ccc(-c2ccc(Cl)cc2C[C@H]2C(=O)N(C)CCCCCCC[C@H](N(C)C(=O)[C@@H](NC(=O)[C@@H]3C[C@@H](F)CN3C(=O)C3(C(F)(F)F)CC(F)(F)C3)C3CC3)C(=O)N[C@@H](CC(C)C)C(=O)N2C)cn1 [Example 182] ({cBuCO(3,3-F2-1-CF3)}-[Pro(trans-4-F)][Gly(cPr)][NMehhhLys(Me)]L[X158]; lactam 3-C) .
Result: 130

Query: For the compound shown here, CC(C)C[C@@H]1NC(=O)[C@@H](N(C)C(=O)[C@@H](NC(=O)[C@@H]2C[C@@H](F)CN2C(=O)C2(C(F)(F)F)CC(F)(F)C2)C2CC2)CCCCCCCN(C)C(=O)[C@H](Cc2cc(Cl)ccc2-c2cnn(CC#N)c2)N(C)C1=O [Example 216] ({cBuCO(3,3-F2-1-CF3)}-[Pro(trans-4-F)][Gly(cPr)][NMehhhLys(Me)]L[X89]; lactam 3-C) , give the reported GI50.
Result: 10

Query: Reported GI50, compound CC(C)C[C@@H]1NC(=O)[C@@H](N(C)C(=O)[C@@H](NC(=O)[C@@H]2C[C@@H](F)CN2C(=O)C2(C(F)(F)F)CC(F)(F)C2)C2CC2)CCCCCCCNC(=O)[C@H](Cc2cc(F)ccc2-c2cnn(S(=O)(=O)C3CC3)c2)N(C)C1=O [Example 281] ({cBuCO(3,3-F2-1-CF3)}-[Pro(trans-4-F)][Gly(cPr)][NMe(hhhLys)]L[X127]; lactam 3-C) : ____
Result: 20

Query: Form field: reported GI50 of CC(C)C[C@@H]1NC(=O)[C@@H](N(C)C(=O)[C@@H](NC(=O)[C@@H]2C[C@@H](F)CN2C(=O)C2(C(F)(F)F)CC(F)(F)C2)C2CC2)CCCCCCCN(C)C(=O)[C@H](Cc2cc(Cl)ccc2-c2cnn3ccncc23)N(C)C1=O [Example 305] ({cBuCO(3,3-F2-1-CF3)}-[Pro(trans-4-F)][Gly(cPr)][NMehhhLys(Me)]L[X60]; lactam 3-C)
Result: 20
